Test: Microsomal stability (intrinsic clearance), mouse liver microsomes
Format: in vitro ADME
Conditions: mouse, liver microsomes, pH 7.4, mouse liver microsomes
microsomal CLint strictly under 100 µL/min/mg means criterion met; at 100 µL/min/mg or over means criterion not met.

                                   compound  qualitative_label
0  COc1ccc(C(Nc2cc(-c3ccc4ccn(C)c4c3)c3nccnc3c2)c2cnnn2C)cn1 (racemic) [Comparative Example 1, reference compound]  criterion not met
1  Cn1cc([C@@H](Nc2cc(-c3ccc4ccn(C)c4c3)c3nccnc3c2)c2cccnc2)cn1 (single isomer, unassigned)      criterion met
2  Cn1cc([C@@H](Nc2cc(-c3ccc4ccn(C)c4c3)c3nccnc3c2)c2nccn2C)cn1 (single isomer, unassigned)      criterion met
3  COc1ccc([C@H](Nc2cc(-c3ccc4ccn(C)c4c3)c3nccnc3c2)c2cnnn2C)cn1 [Comparative Example 2, reference compound]  criterion not met
4  COc1ccc([C@H](Nc2cc(-c3ccc4ccn(C)c4c3)c3nccnc3c2)c2cccnc2)nn1 (single isomer, unassigned)  criterion not met
5  Cn1cc([C@H](Nc2cc(-c3ccc4ccn(C)c4c3)c3nccnc3c2)c2cccnc2)cn1 (single isomer, unassigned)  criterion not met
6  Cn1cc([C@H](Nc2cc(-c3cnc4ccn(C)c4c3)c3nccnc3c2)c2cccnc2)cn1 (single isomer, unassigned)      criterion met
7  CC(C)[C@@H](Nc1cc(-c2ccc3ccn(C)c3c2)c2nccnc2c1)c1cccnc1 (single isomer, unassigned)  criterion not met
8  Cn1ccc2ccc(-c3cc(NC(c4cccnc4)c4ccc(=O)[nH]n4)cc4nccnc34)cc21 (stereo not drawn) [Example 1]  criterion not met

====

Test: Kinetic solubility
Format: physicochemical
Conditions: phosphate buffer, pH 7.4, aqueous buffer, kinetic from dmso stock, phosphate buffer 20 mM pH 7.4, 2% DMSO, room temperature
Below is a list of entries, each paired with its recorded solubility kinetic at 120 min value.
quantity-measured: solubility kinetic at 120 min (µM)

In [3]: df
Out[3]:
                                   compound              quantity_measured  observed
0  Cn1cc([C@@H](Nc2cc(-c3ccc4ccn(C)c4c3)c3nccnc3c2)c2nccn2C)cn1 (single isomer, unassigned) [Example 15]  solubility kinetic at 120 min        48
1  CC(C)[C@H](Nc1cc(-c2ccc3ccn(C)c3c2)c2nccnc2c1)c1cccnc1 (single isomer, unassigned) [Example 21]  solubility kinetic at 120 min         7
2  Cn1cc([C@@H](Nc2cc(-c3cnc4ccn(C)c4c3)c3nccnc3c2)c2cccnc2)cn1 (single isomer, unassigned) [Example 26]  solubility kinetic at 120 min       192
3  Cn1cc([C@H](Nc2cc(-c3ccc4ccn(C)c4c3)c3nccnc3c2)c2cnnn2C)cn1 (single isomer, unassigned) [Example 8]  solubility kinetic at 120 min       110
4  Cn1cc([C@H](Nc2cc(-c3ccc4ccn(C)c4c3)c3nccnc3c2)c2cccnc2)cn1 (single isomer, unassigned) [Example 18]  solubility kinetic at 120 min        39
5  Cn1cc([C@@H](Nc2cc(-c3ccc4ccn(C)c4c3)c3nccnc3c2)c2cccnc2)cn1 (single isomer, unassigned) [Example 17]  solubility kinetic at 120 min        42
6  COc1ccc([C@@H](Nc2cc(-c3ccc4ccn(C)c4c3)c3nccnc3c2)c2cccnc2)nn1 (single isomer, unassigned) [Example 5]  solubility kinetic at 120 min        20

====

Molecular target: Human recombinant His-tagged PFKFB3 (Homo sapiens, UniProt Q16875)
Construct: His; made in house
Sequence (Q16875 whole entry): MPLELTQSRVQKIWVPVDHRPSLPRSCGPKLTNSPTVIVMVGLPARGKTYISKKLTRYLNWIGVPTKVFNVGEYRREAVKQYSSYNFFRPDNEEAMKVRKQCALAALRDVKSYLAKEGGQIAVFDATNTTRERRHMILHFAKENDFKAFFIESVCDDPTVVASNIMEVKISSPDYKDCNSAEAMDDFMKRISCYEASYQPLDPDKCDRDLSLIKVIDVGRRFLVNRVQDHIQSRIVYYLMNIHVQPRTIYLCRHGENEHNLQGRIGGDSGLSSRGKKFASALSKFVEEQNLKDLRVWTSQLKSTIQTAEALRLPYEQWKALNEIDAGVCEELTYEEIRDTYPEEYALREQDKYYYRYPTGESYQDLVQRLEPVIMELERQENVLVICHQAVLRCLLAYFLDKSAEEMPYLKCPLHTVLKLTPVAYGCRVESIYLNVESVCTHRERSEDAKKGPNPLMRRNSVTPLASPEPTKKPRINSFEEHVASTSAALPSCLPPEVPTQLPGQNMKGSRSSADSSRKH
Experiment: PFKFB3 IC50 determination assay (modified ADP-Glo in vitro kinase assay)
Format: biochemical
Details: human recombinant PFKFB3 25 nM, ATP 20 μM, fructose-6-phosphate 2 μM, 2 h, rt; read-out: PFKFB IC50
quantity-measured: IC50 (nM)

                                   compound  quantity_measured  unit_spec  observed
0  Cn1ccc2ccc(-c3cc(NC(c4cccnc4)c4ccc(=O)[nH]n4)cc4nccnc34)cc21 (single isomer, unassigned) [Example 3]               IC50         nM       180
1  Cn1ccc([C@@H](Nc2cc(-c3ccc4ccn(C)c4c3)c3nccnc3c2)c2cnnn2C)n1 (single isomer, unassigned) [Example 29]               IC50         nM        22
2  Cn1cc([C@@H](Nc2cc(-c3ccc4ccn(C)c4c3)c3nccnc3c2)c2cccnc2)cn1 (single isomer, unassigned) [Example 17]               IC50         nM       120
3  Cn1cc([C@H](Nc2cc(-c3cnc4ccn(C)c4c3)c3nccnc3c2)c2cccnc2)cn1 (single isomer, unassigned) [Example 27]               IC50         nM      6300
4  CC(C)[C@@H](Nc1cc(-c2ccc3ccn(C)c3c2)c2nccnc2c1)c1cccnc1 (single isomer, unassigned) [Example 20]               IC50         nM        33
5  Cn1cc([C@H](Nc2cc(-c3ccc4ccn(C)c4c3)c3nccnc3c2)c2cncn2C)cn1 (single isomer, unassigned) [Example 11]               IC50         nM        14
6  Cn1ccc2ccc(-c3cc(NC(c4cccnc4)c4ccc(=O)[nH]n4)cc4nccnc34)cc21 (single isomer, unassigned) [Example 2]               IC50         nM        28
7  COc1ccc([C@H](Nc2cc(-c3ccc4ccn(C)c4c3)c3nccnc3c2)c2cccnc2)nn1 (single isomer, unassigned) [Example 6]               IC50         nM       900

====

Assay: Microsomal stability (intrinsic clearance), mouse liver microsomes
Type: in vitro ADME
Details: mouse, liver microsomes, pH 7.4, mouse liver microsomes
quantity-measured: microsomal CLint (µL/min/mg)

>>> df
                                    compound  observed
 0  COc1ccc([C@@H](Nc2cc(-c3ccc4ccn(C)c4c3)c3nccnc3c2)c2cccnc2)nn1 (single isomer, unassigned)       154
 1  Cn1cc([C@H](Nc2cc(-c3ccc4ccn(C)c4c3)c3nccnc3c2)c2cncn2C)cn1 (single isomer, unassigned)       105
 2  COc1ccc([C@@H](Nc2cc(-c3ccc4ccn(C)c4c3)c3nccnc3c2)c2cccnc2)cn1 [Comparative Example 4, reference compound]       291
 3  CC(C)[C@H](Nc1cc(-c2ccc3ccn(C)c3c2)c2nccnc2c1)c1cccnc1 (single isomer, unassigned)       488
 4  Cn1ccc([C@H](Nc2cc(-c3ccc4ccn(C)c4c3)c3nccnc3c2)c2cnnn2C)n1 (single isomer, unassigned)       216
 5  Cn1cc([C@@H](Nc2cc(-c3ccc4ccn(C)c4c3)c3nccnc3c2)c2cnnn2C)cn1 (single isomer, unassigned)       146
 6  Cn1cc([C@H](Nc2cc(-c3ccc4ccn(C)c4c3)c3nccnc3c2)c2cnnn2C)cn1 (single isomer, unassigned)        29
 7  Cn1ccc([C@@H](Nc2cc(-c3ccc4ccn(C)c4c3)c3nccnc3c2)c2cnnn2C)n1 (single isomer, unassigned)        69
 8  Cn1cc([C@@H](Nc2cc(-c3cnc4ccn(C)c4c3)c3nccnc3c2)c2cccnc2)cn1 (single isomer, unassigned)        58
 9  COc1ccc([C@@H](Nc2cc(-c3ccc4ccn(C)c4c3)c3nccnc3c2)c2cnnn2C)cn1 [Comparative Example 3, reference compound]       287
10  Cn1cc([C@H](Nc2cc(-c3ccc4ccn(C)c4c3)c3nccnc3c2)c2nccn2C)cn1 (single isomer, unassigned)        67
11  Cn1ccc2ccc(-c3cc(NC(c4cccnc4)c4ccc(=O)[nH]n4)cc4nccnc34)cc21 (single isomer, unassigned) [Example 2]       101
